# system tested: Protein cereblon/Focal adhesion kinase 1 (Homo sapiens, UniProt Q05397+Q96SW2)
# Sequence (Q05397 2-1052 limits assumed): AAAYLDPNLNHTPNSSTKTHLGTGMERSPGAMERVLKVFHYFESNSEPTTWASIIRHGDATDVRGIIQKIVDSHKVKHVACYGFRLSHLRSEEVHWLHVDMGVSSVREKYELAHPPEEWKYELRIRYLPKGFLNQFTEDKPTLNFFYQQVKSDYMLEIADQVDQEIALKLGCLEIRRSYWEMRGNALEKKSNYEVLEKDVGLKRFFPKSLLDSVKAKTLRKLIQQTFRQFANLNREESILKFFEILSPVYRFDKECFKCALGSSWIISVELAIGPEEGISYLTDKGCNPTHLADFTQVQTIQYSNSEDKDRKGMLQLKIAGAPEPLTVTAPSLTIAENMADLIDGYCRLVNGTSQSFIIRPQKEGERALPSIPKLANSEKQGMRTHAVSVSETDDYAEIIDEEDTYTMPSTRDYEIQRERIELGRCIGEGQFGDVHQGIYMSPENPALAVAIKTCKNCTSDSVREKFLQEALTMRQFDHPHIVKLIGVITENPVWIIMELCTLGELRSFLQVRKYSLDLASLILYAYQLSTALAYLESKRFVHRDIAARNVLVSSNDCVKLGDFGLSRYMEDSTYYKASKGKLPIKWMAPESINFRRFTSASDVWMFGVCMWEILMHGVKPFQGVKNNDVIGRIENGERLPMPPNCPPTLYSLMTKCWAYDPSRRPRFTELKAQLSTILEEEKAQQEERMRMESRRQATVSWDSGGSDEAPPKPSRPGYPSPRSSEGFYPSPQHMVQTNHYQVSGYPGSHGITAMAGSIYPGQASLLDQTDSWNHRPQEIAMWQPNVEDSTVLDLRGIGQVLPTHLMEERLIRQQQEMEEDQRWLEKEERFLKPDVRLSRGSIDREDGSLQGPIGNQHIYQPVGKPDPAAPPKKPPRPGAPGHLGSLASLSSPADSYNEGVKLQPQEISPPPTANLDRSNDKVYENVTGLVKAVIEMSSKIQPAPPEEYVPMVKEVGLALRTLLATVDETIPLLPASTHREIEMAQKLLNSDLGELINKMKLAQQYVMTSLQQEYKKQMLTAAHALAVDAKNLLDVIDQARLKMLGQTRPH
# Sequence (Q96SW2 whole entry partner): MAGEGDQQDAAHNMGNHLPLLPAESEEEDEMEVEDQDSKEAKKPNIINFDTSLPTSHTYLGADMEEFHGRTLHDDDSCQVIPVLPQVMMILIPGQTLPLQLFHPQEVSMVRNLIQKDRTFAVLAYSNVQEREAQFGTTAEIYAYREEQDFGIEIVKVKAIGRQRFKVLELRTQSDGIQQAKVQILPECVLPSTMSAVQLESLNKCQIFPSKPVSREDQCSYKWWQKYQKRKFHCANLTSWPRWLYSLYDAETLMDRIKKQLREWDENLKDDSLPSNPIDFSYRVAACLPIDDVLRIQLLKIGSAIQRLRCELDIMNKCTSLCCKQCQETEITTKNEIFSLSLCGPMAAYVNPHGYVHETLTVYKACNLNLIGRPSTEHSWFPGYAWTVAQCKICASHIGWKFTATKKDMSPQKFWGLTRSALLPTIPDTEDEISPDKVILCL
# run description: Protac activity at CRBN/FAK in human PA1 cells assessed as induction of FAK degradation at 10 nM incubated for 8 hrs by Western blot analysis relative to control
# Assay type: cell-based
# conditions: PA-1
outcome measure: Activity (%)

compound	system tested	units text	numeric value
CN(c1ncccc1CNc1ncc(C(F)(F)F)c(Nc2ccc(NC(=O)c3cn(CCOCCOCCOCCNc4cccc5c4C(=O)N(C4CCC(=O)NC4=O)C5=O)nn3)cc2)n1)S(C)(=O)=O (stereo not drawn)	Protein cereblon/Focal adhesion kinase 1 (Homo sapiens, UniProt Q05397+Q96SW2)	%	0
CN(c1ncccc1CNc1nc(Nc2ccc(NC(=O)c3cn(CCCCCCCCNc4cccc5c4C(=O)N(C4CCC(=O)NC4=O)C5=O)nn3)cc2)ncc1C(F)(F)F)S(C)(=O)=O (stereo not drawn)	Protein cereblon/Focal adhesion kinase 1 (Homo sapiens, UniProt Q05397+Q96SW2)	%	93
CN(c1ncccc1CNc1nc(Nc2ccc(NC(=O)c3cn(CCOCCNc4cccc5c4C(=O)N(C4CCC(=O)NC4=O)C5=O)nn3)cc2)ncc1C(F)(F)F)S(C)(=O)=O (stereo not drawn)	Protein cereblon/Focal adhesion kinase 1 (Homo sapiens, UniProt Q05397+Q96SW2)	%	92
CN(c1ncccc1CNc1nc(Nc2ccc(NC(=O)c3cn(CCOCCOCCOCCOCCNc4cccc5c4C(=O)N(C4CCC(=O)NC4=O)C5=O)nn3)cc2)ncc1C(F)(F)F)S(C)(=O)=O (stereo not drawn)	Protein cereblon/Focal adhesion kinase 1 (Homo sapiens, UniProt Q05397+Q96SW2)	%	82
CN(c1nccnc1CNc1nc(Nc2ccc(NC(=O)c3cn(CCOCCOCCNc4cccc5c4C(=O)N(C4CCC(=O)NC4=O)C5=O)nn3)cc2)ncc1C(F)(F)F)S(C)(=O)=O (stereo not drawn)	Protein cereblon/Focal adhesion kinase 1 (Homo sapiens, UniProt Q05397+Q96SW2)	%	96
CN(c1ncccc1CNc1nc(Nc2ccc(NC(=O)c3cn(CCOCCOCCNc4cccc5c4C(=O)N(C4CCC(=O)NC4=O)C5=O)nn3)cc2)ncc1C(F)(F)F)S(C)(=O)=O (stereo not drawn)	Protein cereblon/Focal adhesion kinase 1 (Homo sapiens, UniProt Q05397+Q96SW2)	%	99
CN(c1nccnc1CNc1nc(Nc2ccc(NC(=O)c3cn(CCOCCNc4cccc5c4C(=O)N(C4CCC(=O)NC4=O)C5=O)nn3)cc2)ncc1C(F)(F)F)S(C)(=O)=O (stereo not drawn)	Protein cereblon/Focal adhesion kinase 1 (Homo sapiens, UniProt Q05397+Q96SW2)	%	90
CN(c1ncccc1CNc1nc(Nc2ccc(C(=O)NCc3cn(CCOCCNc4cccc5c4C(=O)N(C4CCC(=O)NC4=O)C5=O)nn3)cc2)ncc1C(F)(F)F)S(C)(=O)=O (stereo not drawn)	Protein cereblon/Focal adhesion kinase 1 (Homo sapiens, UniProt Q05397+Q96SW2)	%	81
CN(c1ncccc1CNc1nc(Nc2ccc(NC(=O)c3cn(CCCCCOCC#Cc4cccc5c4C(=O)N(C4CCC(=O)NC4=O)C5=O)nn3)cc2)ncc1C(F)(F)F)S(C)(=O)=O (stereo not drawn)	Protein cereblon/Focal adhesion kinase 1 (Homo sapiens, UniProt Q05397+Q96SW2)	%	90
CN(c1ncccc1CNc1nc(Nc2ccc(NC(=O)c3cn(CCCCCCCC#Cc4cccc5c4C(=O)N(C4CCC(=O)NC4=O)C5=O)nn3)cc2)ncc1C(F)(F)F)S(C)(=O)=O (stereo not drawn)	Protein cereblon/Focal adhesion kinase 1 (Homo sapiens, UniProt Q05397+Q96SW2)	%	90

A. CN(c1nccnc1CNc1nc(Nc2ccc(C(=O)NCc3cn(CCOCCNc4cccc5c4C(=O)N(C4CCC(=O)NC4=O)C5=O)nn3)cc2)ncc1C(F)(F)F)S(C)(=O)=O (stereo not drawn)
B. CN(c1ncccc1CNc1ncc(C(F)(F)F)c(Nc2ccc(NC(=O)c3cn(CCOCCNc4cccc5c4C(=O)N(C4CCC(=O)NC4=O)C5=O)nn3)cc2)n1)S(C)(=O)=O (stereo not drawn)
Min Activity? A | B Kindly state the label of the option you pick.
B

1. CN(c1ncccc1CNc1nc(Nc2ccc(NC(=O)c3cn(CCOCCOCCCc4cccc5c4C(=O)N(C4CCC(=O)NC4=O)C5=O)nn3)cc2)ncc1C(F)(F)F)S(C)(=O)=O (stereo not drawn)
2. CCN1C(=O)CCC(N2C(=O)c3cccc(NCCOCCOCCn4cc(C(=O)Nc5ccc(Nc6ncc(C(F)(F)F)c(NCc7cccnc7N(C)S(C)(=O)=O)n6)cc5)nn4)c3C2=O)C1=O (stereo not drawn)
3. CN(c1nccnc1CNc1nc(Nc2ccc(C(=O)NCc3cn(CCOCCOCCNc4cccc5c4C(=O)N(C4CCC(=O)NC4=O)C5=O)nn3)cc2)ncc1C(F)(F)F)S(C)(=O)=O (stereo not drawn)
Returns the items ordered by Activity, from maximum to minimum. Form entry: labels listed in requested order.
1, 3, 2
(1: 90%, 3: 60%, 2: 0%)

a. CN(c1ncccc1CNc1nc(Nc2ccc(NC(=O)c3cn(CCOCCOCCOCCNc4cccc5c4C(=O)N(C4CCC(=O)NC4=O)C5=O)nn3)cc2)ncc1C(F)(F)F)S(C)(=O)=O (stereo not drawn)
b. CN(c1ncccc1CNc1nc(Nc2ccc(C(=O)NCc3cn(CCOCCOCCNc4cccc5c4C(=O)N(C4CCC(=O)NC4=O)C5=O)nn3)cc2)ncc1C(F)(F)F)S(C)(=O)=O (stereo not drawn)
Min Activity? a | b Kindly state the label of the option you pick.
b
(b: 65%, a: 94%)

Origin of the recorded values: ChEMBL document CHEMBL4725428
